Here we gather IC50 data for human DGAT1 (Homo sapiens) reported by several publications.

For orientation, consider the following solved cases.
Req: API: value(readout=IC50, system=human DGAT1 (Homo sapiens)) for record CC1(C)Oc2ncnc(N)c2N=C1c1ccc([C@H]2CC[C@H](CCNS(C)(=O)=O)CC2)cc1
Resp: 10 to 100 nM

Req: API: value(readout=IC50, system=human DGAT1 (Homo sapiens)) for record CC1(C)Oc2ncnc(N)c2N=C1c1ccc([C@H]2CC[C@H](CC(=O)N3C[C@@H](O)[C@@H](O)C3)CC2)cc1
Resp: 10 to 100 nM

Req: API: value(readout=IC50, system=human DGAT1 (Homo sapiens)) for record CC1(C)Oc2ncnc(N)c2N=C1c1ccc([C@H]2CC[C@H](CC(=O)N3CCOCC3)CC2)cc1
Resp: 10 to 100 nM

Continuing:
Req: API: value(readout=IC50, system=human DGAT1 (Homo sapiens)) for record CN(C)C(=O)CC[C@H]1CC[C@H](c2ccc(C3=Nc4c(N)ncnc4OC3(C)C)cc2)CC1
Resp: 10 to 100 nM

Req: API: value(readout=IC50, system=human DGAT1 (Homo sapiens)) for record CC(C)c1cc(C(C)C)c(CC(=O)NS(=O)(=O)Oc2c(C(C)C)cccc2C(C)C)c(C(C)C)c1
Resp: 3030 nM

Req: API: value(readout=IC50, system=human DGAT1 (Homo sapiens)) for record CCOc1ccc(C(=O)NCCNC(=O)c2nn(-c3ccccc3)nc2C)cc1
Resp: 1000 to 10000 nM

Req: API: value(readout=IC50, system=human DGAT1 (Homo sapiens)) for record CC1CN(CC(=O)Nc2ccc(C3CCN(C(=O)Nc4c(Cl)cccc4Cl)CC3)cc2)CC(C)O1 (stereo not drawn)
Resp: 50.1 nM

Req: API: value(readout=IC50, system=human DGAT1 (Homo sapiens)) for record O=C(Nc1ccc(N2CCN(C(=O)C(O)c3ccc4c(c3)OCO4)CC2)nc1)c1oc(-c2ccccc2)nc1C(F)(F)F (stereo not drawn)
Resp: 11 to 100 nM

Req: API: value(readout=IC50, system=human DGAT1 (Homo sapiens)) for record CC1(C)Oc2ncnc(N)c2N=C1c1ccc([C@H]2CC[C@H](CC(=O)N3CCNCC3)CC2)cc1.Cl.Cl
Resp: 10 to 100 nM

Req: API: value(readout=IC50, system=human DGAT1 (Homo sapiens)) for record O=C(O)CC1(F)CCc2cc(-c3ccc(NC(=O)Nc4cccc(C(F)(F)F)c4)cc3)ccc2C1=O (stereo not drawn)
Resp: 48 nM

Req: API: value(readout=IC50, system=human DGAT1 (Homo sapiens)) for record C#CCCC(=O)Nc1ccc(C2CCN(C(=O)Nc3c(Cl)cccc3Cl)CC2)cc1
Resp: 245 nM

----------
Here we gather log10 IC50 data for human DGAT1 (Homo sapiens) reported by several publications.
Scale: log10; quantity: IC50; unit before log: nM

For orientation, consider the following solved cases.
Req: API: value(readout=log10 IC50, system=human DGAT1 (Homo sapiens)) for record C[C@]1(C(=O)O)CC[C@@H](OC2CCN(c3ccc(-c4nc5ncc(C(F)(F)F)cc5[nH]4)cn3)CC2)CC1
Resp: 1.68

Req: API: value(readout=log10 IC50, system=human DGAT1 (Homo sapiens)) for record C#CCCC(=O)Nc1ccc(N2CCN(C(=O)Nc3c(Cl)cccc3Cl)CC2)cc1
Resp: 2.08

Req: API: value(readout=log10 IC50, system=human DGAT1 (Homo sapiens)) for record CC(C)c1ccc(-c2ccccc2C(=O)Nc2ccc(C3CCN(C(=O)Nc4c(Cl)cccc4Cl)CC3)cc2)cc1
Resp: 2.63

Req: API: value(readout=log10 IC50, system=human DGAT1 (Homo sapiens)) for record Cc1nc(-c2cccc(C(=O)Nc3ccc(N4CCN(C(=O)Nc5c(Cl)cccc5Cl)CC4)cc3)c2)cs1
Resp: 0.32

Now let's try a different one.
Req: API: value(readout=log10 IC50, system=human DGAT1 (Homo sapiens)) for record Cc1cccc(Cl)c1NC(=O)N1CCN(c2ccc(NC(=O)CCCc3ccccc3)cc2)CC1
Resp: 1.10
